# Test system: UACC-62
# test: NCI tumour cell line growth inhibition, 48 h
Activity calls are given as the source filed them. Rule as the data show it: active = GI50 up to about 1.1 µM and inactive = higher.
Possible outcomes: class 1 for active, class 0 for inactive

{"molecule": "CCNC(=O)N(CC)CN(CC)C(=O)NCC", "assignedClass": "class 0"}
{"molecule": "COC(=O)[C@H]1COC(=O)N1", "assignedClass": "class 0"}
{"molecule": "Cc1ccccc1NC(=O)CC(=O)NNCC(=O)Nc1nnc(-c2ccccc2)s1", "assignedClass": "class 0"}
{"molecule": "Clc1cccc(-c2nc3cccc4c3n2Cc2ncccc2-4)c1", "assignedClass": "class 0"}
{"molecule": "CCN(CC)CCNc1ccc([N+](=O)[O-])c2nc3ccccc3c(N)c12", "assignedClass": "class 1"}
{"molecule": "COc1ccc(C2C3=C(COC3=O)Oc3cc4c(cc32)OCO4)cc1 (stereo unspecified)", "assignedClass": "class 0"}
{"molecule": "Cc1c(C(=O)O)n2c(C)nnc2c2ccccc12", "assignedClass": "class 0"}
{"molecule": "O=C1C=CC(=O)c2c(O)ccc(O)c21 [NAPHTHAZALIN]", "assignedClass": "class 0"}
{"molecule": "CCOC(=O)C1=C(Nc2cccc3ccccc23)OC/C1=N\\NC(=O)c1ccccc1O", "assignedClass": "class 0"}
{"molecule": "COc1ccccc1N1C(=O)C2c3[nH]c4ccccc4c3C3CCC(C(C)(C)C)CC3C2C1=O (stereo unspecified)", "assignedClass": "class 0"}
{"molecule": "Cn1c2ccc(Cl)cc2c2ccc3c(c21)C(=O)C=CC3=O", "assignedClass": "class 0"}

----------
Listed here are compounds together with their documented GI50.
# Test system: A498
# test: NCI tumour cell line growth inhibition, 48 h
Active and inactive are the calls of the source. No stated cut-off is given here; in the data, active = GI50 up to about 1.1 µM and inactive = higher.
measureName: GI50

{"compound": "COc1ccccc1NC(=S)NN=C(C)c1cccc(C(C)=NNC(=S)Nc2ccccc2OC)n1", "measureName": "GI50", "measuredResult": "29.1 µM (inactive)"}
{"compound": "CC(=O)OCC1OC(n2c3c(cc(C#N)c2=S)CCCC3)C(OC(C)=O)C(OC(C)=O)C1OC(C)=O (stereo not drawn)", "measureName": "GI50", "measuredResult": "> 100 µM (inactive)"}
{"compound": "Oc1c(C2=N[C@H]3CCCC[C@@H]3N2)ccc2ccccc12", "measureName": "GI50", "measuredResult": "> 100 µM (inactive)"}
{"compound": "Cc1ccc(C(=O)Nc2ccc(CP(=O)(O)O)cc2)cc1NC(=O)c1cccc(NC(=O)Nc2cccc(C(=O)Nc3cc(C(=O)Nc4ccc(CP(=O)(O)O)cc4)ccc3C)c2)c1", "measureName": "GI50", "measuredResult": "> 100 µM (inactive)"}
{"compound": "Cn1ccnc1SC(F)(F)c1nc2ccccc2o1", "measureName": "GI50", "measuredResult": "> 100 µM (inactive)"}
{"compound": "COC(=O)C1CC23C4=C(CCC41)CCC1CN4CC(C)C(CC(OC(C)=O)C12COC(C)=O)C43O (stereo not drawn)", "measureName": "GI50", "measuredResult": "> 100 µM (inactive)"}
{"compound": "COC(=O)c1c(C#C[Si](C)(C)C)c(C#C[Si](C)(C)C)c(C#C[Si](C)(C)C)c(C#C[Si](C)(C)C)c1C(=O)OC", "measureName": "GI50", "measuredResult": "> 100 µM (inactive)"}
{"compound": "COc1cc(/C=C/C(=O)O)ccc1C(=O)O/C=C/c1ccccc1", "measureName": "GI50", "measuredResult": "> 85.3 µM (inactive)"}
{"compound": "Cc1ccc2nc3c(C)c(Cl)c(=O)cc-3sc2c1", "measureName": "GI50", "measuredResult": "40.2 µM (inactive)"}
{"compound": "CC1=NN(c2cc(Cl)c(S(=O)(=O)O)cc2Cl)C2(C1)C(Cl)C(=O)N2c1nc2ccccc2s1 (stereo not drawn)", "measureName": "GI50", "measuredResult": "80 µM (inactive)"}
{"compound": "FC(F)(F)C1=NC(=NNc2nnc(-c3ccccc3)c(-c3ccccc3)n2)N=C(C(F)(F)F)C1", "measureName": "GI50", "measuredResult": "11.6 µM (inactive)"}
{"compound": "OC(c1ccco1)C(F)(F)c1nc2ccccc2o1 (stereo not drawn)", "measureName": "GI50", "measuredResult": "62.1 µM (inactive)"}
{"compound": "O=C(c1cccs1)N(Cc1cccnc1)C(=S)N(Cc1cccnc1)C(=O)c1cccs1", "measureName": "GI50", "measuredResult": "32.3 µM (inactive)"}
{"compound": "COc1ccc2c(c1)[n+]([O-])c(-c1ccc(Cl)c(Cl)c1)c(N)[n+]2[O-]", "measureName": "GI50", "measuredResult": "47.5 µM (inactive)"}
{"compound": "O=CN/C=C\\c1cc(O)ccc1O", "measureName": "GI50", "measuredResult": "74.8 µM (inactive)"}
{"compound": "NC(=O)Nc1ccc(C(=O)NCCCNC(=O)c2ccc(NC(N)=O)cc2)cc1", "measureName": "GI50", "measuredResult": "> 100 µM (inactive)"}
{"compound": "CCCCCCCCP(=O)(O)OP(=O)(O)OCC1OC(n2ccc(N)nc2=O)C(O)C1O (stereo not drawn)", "measureName": "GI50", "measuredResult": "> 100 µM (inactive)"}
{"compound": "C[N+]1(C)CC=C(N2CCOCC2)CC1", "measureName": "GI50", "measuredResult": "> 10 µM (inactive)"}
{"compound": "Cc1nc2c(nc1C)-c1c(c3c(n1Cc1ccccc1)C(=O)CCC3)C(=O)C2=O", "measureName": "GI50", "measuredResult": "18.8 µM (inactive)"}
{"compound": "CCN(CC)CCC1(C2CCCCC2)CCC(=O)NC1=O (stereo not drawn)", "measureName": "GI50", "measuredResult": "> 100 µM (inactive)"}
{"compound": "COCCCCCC(=O)CP(=O)(OC)OC", "measureName": "GI50", "measuredResult": "> 100 µM (inactive)"}
{"compound": "Cc1cc(N(CCC#N)CCC#N)ccc1/N=N/c1cccc(Cl)c1", "measureName": "GI50", "measuredResult": "> 100 µM (inactive)"}
{"compound": "O=C1CC(C2(O)C(=O)Nc3ccc([N+](=O)[O-])cc32)c2ccccc21 (stereo not drawn)", "measureName": "GI50", "measuredResult": "72.8 µM (inactive)"}
{"compound": "O=S1(=O)C[C@H](O)[C@H](O)CS1", "measureName": "GI50", "measuredResult": "> 100 µM (inactive)"}
{"compound": "CN(C)C1(c2cc3ccccc3s2)CCCCC1", "measureName": "GI50", "measuredResult": "32.8 µM (inactive)"}
{"compound": "CC(C)CNC(=O)O", "measureName": "GI50", "measuredResult": "> 100 µM (inactive)"}
{"compound": "CC(=O)C1=C(O)/C(=C\\c2ccco2)OC1=O", "measureName": "GI50", "measuredResult": "> 10 µM (inactive)"}
{"compound": "CC1(C)CCCCCCCCCC2CC2CCC(C)(C)C1=O (stereo not drawn)", "measureName": "GI50", "measuredResult": "37.4 µM (inactive)"}
{"compound": "CCN(CC)c1ccc(/C=C2\\CCc3ccc([N+](=O)[O-])cc3C2=O)cc1", "measureName": "GI50", "measuredResult": "2.56 µM (inactive)"}
{"compound": "O=c1[nH]c(=O)n(COCCOCc2ccccc2)cc1Nc1ccccc1", "measureName": "GI50", "measuredResult": "> 100 µM (inactive)"}
{"compound": "O=c1[nH]cc(COCCO)c(=O)[nH]1", "measureName": "GI50", "measuredResult": "> 100 µM (inactive)"}
{"compound": "OC1OC(c2ccco2)C(F)(F)C(F)(F)C1(F)F (stereo not drawn)", "measureName": "GI50", "measuredResult": "> 100 µM (inactive)"}
{"compound": "O=C(/C=C/c1ccc(Cl)cc1)c1ccc(Cl)s1", "measureName": "GI50", "measuredResult": "19.1 µM (inactive)"}
{"compound": "Cc1nc2ccc(NC3OCC(O)C(O)C3O)cc2c(=O)n1-c1ccccc1 (stereo not drawn)", "measureName": "GI50", "measuredResult": "> 100 µM (inactive)"}
{"compound": "O=C(Nc1nc2c(ncn2C2OC(CO)C(O)C2O)c(=O)[nH]1)c1ccccc1 (stereo not drawn)", "measureName": "GI50", "measuredResult": "> 100 µM (inactive)"}
{"compound": "Cc1c(C(=O)O)n2c(C)nnc2c2ccccc12", "measureName": "GI50", "measuredResult": "> 100 µM (inactive)"}
{"compound": "O=C(NN1C(=O)C(Cl)C1c1cccc(Cl)c1)c1ccccc1O (stereo not drawn)", "measureName": "GI50", "measuredResult": "> 100 µM (inactive)"}
{"compound": "Cc1nc(O)nc(NNCc2ccc(Cl)cc2)c1C(=O)Nc1ccc(Cl)cc1", "measureName": "GI50", "measuredResult": "> 100 µM (inactive)"}
{"compound": "CSc1nc(Cl)c2c(n1)Sc1nc3cc4c(cc3n1C2O)OCCO4 (stereo not drawn)", "measureName": "GI50", "measuredResult": "0.708 µM (active)"}
{"compound": "C=CCN(N=O)C(=O)ON1C(=O)CCC1=O", "measureName": "GI50", "measuredResult": "> 100 µM (inactive)"}
{"compound": "CC(C)C1OC(=O)/C=C/C=C/C=C/C=C/C=C/CC(O)C(C)C(O)CC(O)CC(O)CC(O)CC(O)CC(O)CC(O)/C=C/C1C (stereo not drawn)", "measureName": "GI50", "measuredResult": "> 100 µM (inactive)"}
{"compound": "OCc1ccc(-c2ccc(-c3ccc(CO)s3)o2)s1", "measureName": "GI50", "measuredResult": "0.0151 µM (active)"}
{"compound": "Nc1ccn(C2OC(C(OC3OC(CO)C(O)C(N)C3O)C(O)C(O)C(O)C(O)CO)C(N)C(O)C2O)c(=O)n1 (stereo not drawn)", "measureName": "GI50", "measuredResult": "> 100 µM (inactive)"}

Value source: ChEMBL document CHEMBL1201862
